# ASSAY PROCEDURE: qHTS assay to identify small molecule that activate the aryl hydrocarbon receptor (AhR) signaling pathway - cell viability counter screen (AID 743086); note: nearly all actives have a fitted effect of over 45% in size
# EXPERIMENTAL PARAMETERS: HepG2-AhR-luc viability, CellTiter-Fluor, 24 h; series mostly up to 70.3 µM
Records with an inconclusive call do not appear. The source made the active and inactive calls. Calls come from the whole dose curve; as a rule, active = well fitted cell-killing curve with a large enough effect in the repeat runs; inconclusive = weak or mixed curves, or effect the other way; inactive = flat fitted curve, though single readings scatter.
Pick one: 1.0 (active), 0.0 (inactive)

COMPOUND: O=C(Oc1ccccc1)c1ccccc1C(=O)Oc1ccccc1
LABEL VALUE: 0.0
--
COMPOUND: CCOC(=O)/C=C(C)/C=C/C=C(C)/C=C/c1c(C)cc(OC)c(C)c1C
LABEL VALUE: 0.0
--
COMPOUND: CCN1/C(=C/C=C/c2sc3ccccc3[n+]2CC)Sc2ccccc21
LABEL VALUE: 1.0

Data request: # outcome recorded in this test, key = Oc1cccc2cc3cccc(O)c3c(O)c12
Data returned: 0.0

Data request: # outcome recorded in this test, key = CCC(C)(C)C1CCCCC1OC(C)=O (stereo unspecified)
Data returned: 0.0

Data request: # outcome recorded in this test, key = COc1ccc(C(=O)/C(Br)=C\C(=O)O)cc1
Data returned: 0.0

Data request: # outcome recorded in this test, key = CS(=O)(=O)CCNCc1ccc(-c2ccc3ncnc(Nc4ccc(OCc5cccc(F)c5)c(Cl)c4)c3c2)o1
Data returned: 0.0

Data request: # outcome recorded in this test, key = CC(C)c1ccc2c(c1)CC[C@H]1[C@](C)(CN)CCC[C@]21C
Data returned: 1.0

Data request: # outcome recorded in this test, key = CCCCCCOC(=O)c1ccc(O)cc1
Data returned: 0.0

Data request: # outcome recorded in this test, key = O=C(OCC(COC(=O)c1ccccc1)(COC(=O)c1ccccc1)COC(=O)c1ccccc1)c1ccccc1
Data returned: 0.0

Data request: # outcome recorded in this test, key = C/C=C1/C(=O)C[C@H]2[C@@H]3CCC4=CC(=O)CC[C@]4(C)[C@H]3CC[C@]12C
Data returned: 0.0

====

# ASSAY PROCEDURE: qHTS assay to identify small molecule agonists of the retinoic acid receptor (RAR) signaling pathway (AID 1159553); note: potency is the fitted concentration of half-maximal effect
# EXPERIMENTAL PARAMETERS: C3RL4 RARE luciferase reporter, agonist, 6 h; series mostly up to 73.3 µM
Inconclusive results are not listed. The source made the active and inactive calls. Calls follow the shape of the dose curve; as a rule, active = well fitted activation curve with a large enough effect in the repeat runs; inconclusive = weak or mixed curves, or effect the other way; inactive = no such curve, though single readings can be large or run the other way.
MEASURED ENDPOINT: Potency

COMPOUND: C[n+]1ccn(Cc2ccccc2)c1
MEASURED ENDPOINT: Potency
RESULT: inactive
--
COMPOUND: NC(=O)CC[C@@H]1NC(=O)[C@H](Cc2ccccc2)NC(=O)[C@H](Cc2ccc(O)cc2)NC(=O)CCSSC[C@@H](C(=O)N2CCC[C@H]2C(=O)N[C@@H](CCCN=C(N)N)C(=O)NCC(N)=O)NC(=O)[C@H](CC(N)=O)NC1=O
MEASURED ENDPOINT: Potency
RESULT: inactive
--
COMPOUND: CN(C)[C@@H]1C(=O)C(C(N)=O)=C(O)[C@@]2(O)C(=O)C3=C(O)c4c(O)cccc4C[C@H]3C[C@@H]12
MEASURED ENDPOINT: Potency
RESULT: inactive
--
COMPOUND: NNc1nc(-c2ccccc2)cs1
MEASURED ENDPOINT: Potency
RESULT: 70.5 µM (active)

====

# ASSAY PROCEDURE: qHTS assay to identify small molecule agonists of the estrogen receptor alpha (ER-alpha) signaling pathway in the presence of an antagonist - cell viability counter screen (AID 1259386);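 note: cells exposed to compounds for 22 h at 37 °C before the viability read; nearly all actives have a fitted effect of over 30% in size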
# EXPERIMENTAL PARAMETERS: VM7Luc4E2 viability, CellTiter-Fluor fluorescence, 22 h; series mostly up to 92.4 µM
Results filed as inconclusive are left out. Active and inactive are the calls of the source. Calls come from the whole dose curve; as a rule, active = well fitted cell-killing curve with a large enough effect in the repeat runs; inconclusive = weak or mixed curves, or effect the other way; inactive = no such curve, though single readings can be large or run the other way.
Pick one: YES for active, NO for inactive

Study these solved cases before continuing.
COMPOUND: CCCCCOC(=O)CCCC
LABEL VALUE: NO
//
COMPOUND: Cc1onc(-c2ccccc2Cl)c1C(=O)N[C@@H]1C(=O)N2[C@@H]1SC(C)(C)[C@@H]2C(=O)O
LABEL VALUE: NO
//
COMPOUND: CCC(C)(C)C1CCCCC1OC(C)=O (stereo not given)
LABEL VALUE: NO
//
COMPOUND: NNc1nc(-c2ccc(N)cc2)cs1
LABEL VALUE: YES
//
COMPOUND: Fc1ccc(C(c2ccc(F)cc2)N2CCN(C/C=C/c3ccccc3)CC2)cc1
LABEL VALUE: NO
//
COMPOUND: CC[C@H]1O[C@]2(CC[C@@H]1C)C[C@@H]1C[C@@H](C/C=C(\C)C[C@@H](C)/C=C/C=C3\CO[C@@H]4[C@H](O)C(C)=C[C@@H](C(=O)O1)[C@]34O)O2
LABEL VALUE: YES
//
COMPOUND: CC1=NC(C)OC1C (stereo not given)
LABEL VALUE: NO
//
COMPOUND: Cc1c(C)c2c(c(C)c1OC(=O)CCC(=O)O)CC[C@@](C)(CCC[C@H](C)CCC[C@H](C)CCCC(C)C)O2
LABEL VALUE: NO

Data request: # outcome recorded in this test, key = CSc1ccc2c(c1)C(N1CCN(C)CC1)Cc1ccccc1S2 (stereo not given)
Data returned: NO

Data request: # outcome recorded in this test, key = Fc1ccc([C@@H]2CCNC[C@H]2COc2ccc3c(c2)OCO3)cc1
Data returned: NO

Data request: # outcome recorded in this test, key = CCC1OCC(COc2ccc(Oc3ccccc3)cc2)O1 (stereo not given)
Data returned: NO

Data request: # outcome recorded in this test, key = CCCCCCCCCCCCCC[P+](CCCC)(CCCC)CCCC (tested in a mixture with another compound)
Data returned: YES

Data request: # outcome recorded in this test, key = CCCCC(CC)COC(=O)c1ccccc1C(=O)O (stereo not given)
Data returned: NO

====

# TARGET OR TEST SYSTEM: Androgen receptor (Homo sapiens) (UniProt P10275)
# Sequence (P10275 whole entry, looked up): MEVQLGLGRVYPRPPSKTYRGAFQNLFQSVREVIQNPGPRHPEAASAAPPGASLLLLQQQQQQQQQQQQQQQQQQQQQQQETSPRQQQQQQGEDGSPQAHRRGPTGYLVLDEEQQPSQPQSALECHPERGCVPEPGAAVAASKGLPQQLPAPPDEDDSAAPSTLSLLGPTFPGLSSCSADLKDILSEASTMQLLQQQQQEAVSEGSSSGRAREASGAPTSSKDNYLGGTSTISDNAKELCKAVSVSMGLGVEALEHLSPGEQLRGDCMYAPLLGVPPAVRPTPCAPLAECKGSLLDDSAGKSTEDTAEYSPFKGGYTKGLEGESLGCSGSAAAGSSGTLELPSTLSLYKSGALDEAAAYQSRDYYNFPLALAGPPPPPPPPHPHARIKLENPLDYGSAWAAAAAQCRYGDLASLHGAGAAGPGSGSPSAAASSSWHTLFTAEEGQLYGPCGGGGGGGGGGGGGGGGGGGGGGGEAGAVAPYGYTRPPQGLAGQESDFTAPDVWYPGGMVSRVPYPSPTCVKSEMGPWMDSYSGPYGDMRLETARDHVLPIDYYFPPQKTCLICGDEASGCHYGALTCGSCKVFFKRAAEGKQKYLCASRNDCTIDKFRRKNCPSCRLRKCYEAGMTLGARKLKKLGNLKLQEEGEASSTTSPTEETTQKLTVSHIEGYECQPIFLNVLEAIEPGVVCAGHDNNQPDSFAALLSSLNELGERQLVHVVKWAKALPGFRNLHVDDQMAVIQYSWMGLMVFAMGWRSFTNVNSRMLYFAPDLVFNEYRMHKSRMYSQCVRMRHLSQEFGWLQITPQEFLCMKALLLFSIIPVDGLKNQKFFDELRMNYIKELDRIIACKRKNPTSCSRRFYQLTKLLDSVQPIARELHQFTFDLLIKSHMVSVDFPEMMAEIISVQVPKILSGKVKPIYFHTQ
# ASSAY PROCEDURE: qHTS assay to identify small molecule antagonists of the androgen receptor (AR) signaling pathway using the MDA cell line in the presence of 0.5 nM R1881 (AID 1259243); note: nearly all actives have a fitted effect of over 50% in size
# EXPERIMENTAL PARAMETERS: MDA-kb2 MMTV-luciferase, R1881 0.5 nM, 16 h; series mostly up to 92.4 µM
Records with an inconclusive call do not appear. Active and inactive are the calls of the source. The call rests on the fitted dose curve; in most records, active means well fitted inhibition curve with a large enough effect in the repeat runs; inconclusive means weak or mixed curves; inactive means no such curve, though single readings can be large or run the other way.
Pick one: Y (active), N (inactive)

Study these solved cases before continuing.
COMPOUND: Clc1ccc2nsnc2c1NC1=NCCN1
LABEL VALUE: N

COMPOUND: COc1cccc2c1C(=O)c1c(O)c3c(c(O)c1C2=O)C[C@@](O)(C(=O)CO)C[C@@H]3O[C@H]1C[C@H](N)[C@H](O[C@@H]2CCCCO2)[C@H](C)O1
LABEL VALUE: Y

COMPOUND: Cc1cc(O)c(C(C)(C)C)cc1Sc1cc(C(C)(C)C)c(O)cc1C
LABEL VALUE: Y

COMPOUND: [O-][n+]1ccccc1SSc1cccc[n+]1[O-]
LABEL VALUE: Y

COMPOUND: CC(C)C(C)(C)C(C)(C)C(C)(C)S
LABEL VALUE: N

Data request: # outcome recorded in this test, key = O=C1CCCc2c1cc1ccc3cccc4ccc2c1c34
Data returned: Y

Data request: # outcome recorded in this test, key = COC(=O)C1=C(C)NC(C)=C(C(=O)OCCc2ccc(N3CCN(C(c4ccccc4)c4ccccc4)CC3)cc2)C1c1cccc([N+](=O)[O-])c1 (centres undefined)
Data returned: N

Data request: # outcome recorded in this test, key = CN(C)c1ccc(C2(c3ccc(N(C)C)cc3)OC(=O)c3cc(N(C)C)ccc32)cc1
Data returned: N

Data request: # outcome recorded in this test, key = Oc1cccc(-c2c3nc(c(-c4cccc(O)c4)c4ccc([nH]4)c(-c4cccc(O)c4)c4nc(c(-c5cccc(O)c5)c5ccc2[nH]5)CC4)C=C3)c1
Data returned: Y

====

# TARGET OR TEST SYSTEM: Aryl hydrocarbon receptor (Homo sapiens) (UniProt P35869)
# Sequence (P35869 whole entry, looked up): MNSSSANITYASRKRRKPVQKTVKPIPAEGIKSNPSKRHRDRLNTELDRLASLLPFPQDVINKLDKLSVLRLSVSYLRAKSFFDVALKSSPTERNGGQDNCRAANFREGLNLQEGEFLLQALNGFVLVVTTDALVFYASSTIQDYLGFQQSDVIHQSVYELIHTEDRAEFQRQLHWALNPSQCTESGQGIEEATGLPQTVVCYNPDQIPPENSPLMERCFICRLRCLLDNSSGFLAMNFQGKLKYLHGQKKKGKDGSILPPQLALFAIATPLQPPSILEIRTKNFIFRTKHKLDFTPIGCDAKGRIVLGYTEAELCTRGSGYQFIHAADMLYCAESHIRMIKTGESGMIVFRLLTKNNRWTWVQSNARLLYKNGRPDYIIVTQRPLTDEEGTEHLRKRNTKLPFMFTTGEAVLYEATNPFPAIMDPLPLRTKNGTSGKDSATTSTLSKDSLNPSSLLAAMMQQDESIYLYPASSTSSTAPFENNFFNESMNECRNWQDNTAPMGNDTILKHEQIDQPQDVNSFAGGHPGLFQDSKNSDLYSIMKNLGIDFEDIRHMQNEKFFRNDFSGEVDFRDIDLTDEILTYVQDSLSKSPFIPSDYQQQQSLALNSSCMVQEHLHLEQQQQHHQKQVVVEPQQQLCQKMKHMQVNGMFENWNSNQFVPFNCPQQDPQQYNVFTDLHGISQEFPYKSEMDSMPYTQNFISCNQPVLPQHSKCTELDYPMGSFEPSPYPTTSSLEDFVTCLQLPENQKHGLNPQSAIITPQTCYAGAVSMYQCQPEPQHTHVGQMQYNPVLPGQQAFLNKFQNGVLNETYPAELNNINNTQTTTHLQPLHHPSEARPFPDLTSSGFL
# ASSAY PROCEDURE: qHTS assay to identify small molecule that activate the aryl hydrocarbon receptor (AhR) signaling pathway (AID 743085); note: nearly all actives have a fitted effect of over 15% in size;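 for activation: HG2L7.5c1 human HepG2 liver cells with stably integrated DRE-driven firefly reporter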
# EXPERIMENTAL PARAMETERS: HepG2 AhR-luc (HG2L7.5c1), luciferase, 24 h; series mostly up to 70.3 µM
Inconclusive results are not listed. Activity calls are given as the source filed them. The call rests on the fitted dose curve; in most records, active means well fitted activation curve with a large enough effect in the repeat runs; inconclusive means weak or mixed curves; inactive means no such curve, though single readings can be large or run the other way.
Pick one: True for active, False for inactive

Study these solved cases before continuing.
COMPOUND: Cc1cc(O)c(C(C)(C)C)cc1C(C)(C)C
LABEL VALUE: False

COMPOUND: NC(=O)N1C(=O)C(C(=O)c2cc(Cl)cs2)c2cc(F)c(Cl)cc21 (configuration not stated)
LABEL VALUE: True

COMPOUND: Nc1ccccc1O
LABEL VALUE: True

Data request: # outcome recorded in this test, key = O=[N+]([O-])c1cc(Cl)c(Cl)c(Cl)c1Cl
Data returned: False

Data request: # outcome recorded in this test, key = CCN(C(=O)N(CC)c1ccccc1)c1ccccc1
Data returned: False

Data request: # outcome recorded in this test, key = CC(C)CCCCCCCCCCCCCCC(=O)O
Data returned: False

Data request: # outcome recorded in this test, key = O=CC=C(c1ccccc1)c1ccccc1
Data returned: False

Value source: PubChem BioAssay (Tox21)
